assay endpoint: melting point

                                 mol_smiles  experimental_result
0  CC(C)n1nc(-c2nc(Nc3ccccc3)c(N)nc2-c2ccccc2)ccc1=O             > 250 °C
1  CC(C)n1nc(-c2nc(NCCN3CCCCC3)c(N)nc2-c2ccccc2)ccc1=O      204.5 to 207 °C
2  Cn1nc(-c2nc(C#N)c(C#N)nc2-c2ccccc2)ccc1=O        210 to 212 °C

###

Measured melting point, listed per entry.
assay endpoint: melting point

>>> print(df.to_string())
                                 mol_smiles  experimental_result
0  CC(C)n1nc(-c2[nH]c(=O)c(N)nc2-c2ccccc2)ccc1=O             > 250 °C
1    CC(C)n1nc(-c2nc(O)cnc2-c2ccccc2)ccc1=O        198 to 200 °C
2  CC(C)n1nc(-c2nc(C#Cc3ccccc3)c(N)nc2-c2ccccc2)ccc1=O        239 to 241 °C
3  Cn1nc(-c2nc(NCCN3CCOCC3)c(N)nc2-c2ccccc2)ccc1=O        226 to 229 °C
4  COCCOc1nc(-c2ccc(=O)n(C)n2)c(-c2ccccc2)nc1N        139 to 141 °C
5   Cn1nc(-c2nc(C#N)c(N)nc2-c2ccccc2)ccc1=O             > 250 °C
6  CC(C)n1nc(-c2nc(N3CCOCC3)c(N)nc2-c2ccccc2)ccc1=O      212 to 214.5 °C
7  CC(C)n1nc(-c2nc(Br)c(N=O)nc2-c2ccccc2)ccc1=O        164 to 166 °C
8  CC(C)n1nc(-c2nc(N)c(C#N)nc2-c2ccccc2Br)ccc1=O        241 to 243 °C
9  CC(C)n1nc(-c2nc(OCc3ccco3)c(N)nc2-c2ccccc2)ccc1=O        172 to 174 °C

Values from patent US7265120B2
